Recorded inhibition values for a group of compounds are listed next.
Test system: Receptor-type tyrosine-protein kinase FLT3 (Homo sapiens), P36888 [N841I]
Sequence (whole entry): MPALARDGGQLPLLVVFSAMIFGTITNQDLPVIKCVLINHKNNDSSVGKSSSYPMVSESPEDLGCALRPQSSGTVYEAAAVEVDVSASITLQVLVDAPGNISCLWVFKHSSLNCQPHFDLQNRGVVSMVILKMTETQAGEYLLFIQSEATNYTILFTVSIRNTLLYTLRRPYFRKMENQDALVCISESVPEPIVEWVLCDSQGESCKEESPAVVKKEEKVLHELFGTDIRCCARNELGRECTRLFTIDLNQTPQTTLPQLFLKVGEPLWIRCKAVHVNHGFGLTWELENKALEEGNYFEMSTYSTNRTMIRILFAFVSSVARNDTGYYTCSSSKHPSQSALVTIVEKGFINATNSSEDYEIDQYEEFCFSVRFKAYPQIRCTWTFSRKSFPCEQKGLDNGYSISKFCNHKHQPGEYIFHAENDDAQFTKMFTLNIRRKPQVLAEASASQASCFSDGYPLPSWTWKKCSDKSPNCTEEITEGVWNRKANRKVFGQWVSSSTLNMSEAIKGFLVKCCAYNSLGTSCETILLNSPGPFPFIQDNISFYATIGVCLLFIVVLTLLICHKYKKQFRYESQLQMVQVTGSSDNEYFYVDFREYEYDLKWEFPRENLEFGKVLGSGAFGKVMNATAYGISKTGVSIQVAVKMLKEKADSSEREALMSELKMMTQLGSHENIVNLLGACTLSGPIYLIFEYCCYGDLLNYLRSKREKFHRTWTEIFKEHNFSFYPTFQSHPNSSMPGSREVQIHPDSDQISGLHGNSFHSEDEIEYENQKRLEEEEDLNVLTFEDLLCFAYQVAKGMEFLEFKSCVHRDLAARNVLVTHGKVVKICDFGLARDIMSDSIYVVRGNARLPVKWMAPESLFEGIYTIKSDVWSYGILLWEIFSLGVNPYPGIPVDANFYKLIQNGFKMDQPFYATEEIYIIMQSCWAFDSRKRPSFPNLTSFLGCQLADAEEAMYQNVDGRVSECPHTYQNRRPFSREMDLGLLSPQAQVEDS
protocol-summary: Inhibition of FLT3 N841I mutant at 1 uM

{"columns": ["molecular-string", "inhibition"],
 "data": [
  ["O=C(c1ccc(-c2cnc3c(c2)N(Cc2cc(Cl)ccc2C(F)(F)F)CCN3)cc1)N1CCC(N2CCCC2)CC1", "96.1%"],
  ["O=C(O)c1ccc(-c2cnc3c(c2)N(Cc2cc(Cl)ccc2C(F)(F)F)CCN3)cc1", "< 50%"],
  ["COC1CCN(C(=O)c2ccc(-c3cnc4c(c3)N(Cc3cc(Cl)ccc3C(F)(F)F)CCN4)cc2)CC1", "< 50%"],
  ["O=C(c1ccc(-c2cnc3c(c2)N(Cc2cc(Cl)ccc2C(F)(F)F)CCN3)cc1)N1CCCCC1", "< 50%"]
]}

* * *

assayed-target: Tyrosine-protein kinase ABL1 (Homo sapiens) (UniProt P00519)
protocol-summary: Inhibition of ABL1 at 1 uM
Recorded inhibition values for a group of molecules are listed next.

{"columns": ["molecular-string", "inhibition"],
 "data": [
  ["O=C(O)c1ccc(-c2cnc3c(c2)N(Cc2cc(Cl)ccc2C(F)(F)F)CCN3)cc1", "< 50%"],
  ["CC(=O)N1CCN(c2cc(-c3cnc4c(c3)N(Cc3cc(Cl)ccc3C(F)(F)F)CCN4)ccn2)CC1", "< 50%"],
  ["O=C(c1ccc(-c2cnc3c(c2)N(Cc2cc(Cl)ccc2C(F)(F)F)CCN3)cc1)N1CCC(N2CCCC2)CC1", "< 50%"],
  ["CN1CCN(c2ccc(-c3cnc4c(c3)N(Cc3c(F)ccc(F)c3Cl)CCN4)cn2)CC1", "84%"],
  ["COC1CCN(C(=O)c2ccc(-c3cnc4c(c3)N(Cc3cc(Cl)ccc3C(F)(F)F)CCN4)cc2)CC1", "< 50%"],
  ["CN1CCN(c2ccc(-c3cnc4c(c3)N(Cc3cc(Cl)ccc3C(F)(F)F)CCN4)cn2)CC1", "< 50%"],
  ["CN1CCN(c2ccc(-c3cnc4c(c3)N(Cc3cc(F)ccc3F)CCN4)cn2)CC1", "59%"],
  ["FC(F)(F)c1ccc(Cl)cc1CN1CCNc2ncc(-c3ccnc(N4CCNCC4)c3)cc21", "< 50%"],
  ["CN1CCN(c2ccc(-c3cnc4c(c3)N(Cc3cc(Cl)ccc3Cl)CCN4)cn2)CC1", "< 50%"],
  ["O=C(c1ccc(-c2cnc3c(c2)N(Cc2cc(Cl)ccc2C(F)(F)F)CCN3)cc1)N1CCCCC1", "< 50%"]
]}

* * *

Recorded inhibition values for a group of compounds are listed next.
assayed-target: Non-receptor tyrosine-protein kinase TNK1 (Homo sapiens) (UniProt Q13470)
Sequence (Q13470 whole entry): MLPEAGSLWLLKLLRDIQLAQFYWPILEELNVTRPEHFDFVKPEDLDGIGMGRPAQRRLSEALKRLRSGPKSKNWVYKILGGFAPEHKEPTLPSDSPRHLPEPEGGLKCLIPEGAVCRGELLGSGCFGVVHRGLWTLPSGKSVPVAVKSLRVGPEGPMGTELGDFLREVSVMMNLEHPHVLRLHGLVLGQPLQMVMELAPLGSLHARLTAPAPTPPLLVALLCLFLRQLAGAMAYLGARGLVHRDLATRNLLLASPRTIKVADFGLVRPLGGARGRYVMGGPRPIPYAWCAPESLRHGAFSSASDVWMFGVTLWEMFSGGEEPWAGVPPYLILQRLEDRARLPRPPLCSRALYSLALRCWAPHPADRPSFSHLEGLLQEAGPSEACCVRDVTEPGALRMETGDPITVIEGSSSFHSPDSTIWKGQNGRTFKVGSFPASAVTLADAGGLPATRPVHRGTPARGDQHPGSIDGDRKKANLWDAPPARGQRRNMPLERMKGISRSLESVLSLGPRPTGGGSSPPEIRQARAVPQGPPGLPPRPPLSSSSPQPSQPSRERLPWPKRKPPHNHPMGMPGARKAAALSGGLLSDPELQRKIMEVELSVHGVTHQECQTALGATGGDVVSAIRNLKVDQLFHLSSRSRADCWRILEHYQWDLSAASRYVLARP
protocol-summary: Inhibition of TNK1 at 1 uM

{"columns": ["molecular-string", "inhibition"],
 "data": [
  ["CN1CCN(c2ccc(-c3cnc4c(c3)N(Cc3c(F)ccc(F)c3Cl)CCN4)cn2)CC1", "< 50%"],
  ["CC(=O)N1CCN(c2cc(-c3cnc4c(c3)N(Cc3cc(Cl)ccc3C(F)(F)F)CCN4)ccn2)CC1", "< 50%"],
  ["CN1CCN(c2ccc(-c3cnc4c(c3)N(Cc3cc(F)ccc3F)CCN4)cn2)CC1", "58.2%"],
  ["O=C(c1ccc(-c2cnc3c(c2)N(Cc2cc(Cl)ccc2C(F)(F)F)CCN3)cc1)N1CCC(N2CCCC2)CC1", "81.7%"],
  ["O=C(O)c1ccc(-c2cnc3c(c2)N(Cc2cc(Cl)ccc2C(F)(F)F)CCN3)cc1", "< 50%"],
  ["O=C(c1ccc(-c2cnc3c(c2)N(Cc2cc(Cl)ccc2C(F)(F)F)CCN3)cc1)N1CCCCC1", "< 50%"],
  ["FC(F)(F)c1ccc(Cl)cc1CN1CCNc2ncc(-c3ccnc(N4CCNCC4)c3)cc21", "< 50%"],
  ["COC1CCN(C(=O)c2ccc(-c3cnc4c(c3)N(Cc3cc(Cl)ccc3C(F)(F)F)CCN4)cc2)CC1", "< 50%"],
  ["CN1CCN(c2ccc(-c3cnc4c(c3)N(Cc3cc(Cl)ccc3Cl)CCN4)cn2)CC1", "< 50%"],
  ["CN1CCN(c2ccc(-c3cnc4c(c3)N(Cc3cc(Cl)ccc3C(F)(F)F)CCN4)cn2)CC1", "< 50%"]
]}

* * *

assayed-target: UniProt Q14289
Sequence (Q14289 whole entry, looked up): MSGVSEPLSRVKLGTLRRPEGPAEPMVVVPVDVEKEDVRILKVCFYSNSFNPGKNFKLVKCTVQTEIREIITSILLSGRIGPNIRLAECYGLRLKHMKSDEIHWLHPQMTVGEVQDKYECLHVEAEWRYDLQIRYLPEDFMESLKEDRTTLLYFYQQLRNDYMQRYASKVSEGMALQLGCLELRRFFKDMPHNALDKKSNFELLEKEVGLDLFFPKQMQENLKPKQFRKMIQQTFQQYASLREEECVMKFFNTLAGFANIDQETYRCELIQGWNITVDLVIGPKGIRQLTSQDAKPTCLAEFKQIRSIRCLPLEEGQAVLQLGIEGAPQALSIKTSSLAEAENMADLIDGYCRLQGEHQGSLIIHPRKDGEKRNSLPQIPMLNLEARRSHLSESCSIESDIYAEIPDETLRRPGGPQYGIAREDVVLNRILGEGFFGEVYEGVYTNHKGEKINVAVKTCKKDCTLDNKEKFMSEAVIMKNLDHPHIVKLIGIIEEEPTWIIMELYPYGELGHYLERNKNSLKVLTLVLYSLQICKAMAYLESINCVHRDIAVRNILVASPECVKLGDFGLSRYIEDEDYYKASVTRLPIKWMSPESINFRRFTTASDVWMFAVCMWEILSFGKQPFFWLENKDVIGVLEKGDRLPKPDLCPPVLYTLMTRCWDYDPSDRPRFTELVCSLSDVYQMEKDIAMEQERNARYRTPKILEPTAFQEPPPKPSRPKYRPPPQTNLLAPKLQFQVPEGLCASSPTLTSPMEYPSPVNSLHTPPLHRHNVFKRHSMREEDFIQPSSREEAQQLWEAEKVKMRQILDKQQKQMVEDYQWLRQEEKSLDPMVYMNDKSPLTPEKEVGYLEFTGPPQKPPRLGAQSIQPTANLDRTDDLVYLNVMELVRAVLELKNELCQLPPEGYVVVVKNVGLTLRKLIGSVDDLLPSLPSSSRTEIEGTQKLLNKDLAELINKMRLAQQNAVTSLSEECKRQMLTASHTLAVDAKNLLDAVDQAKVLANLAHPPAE
protocol-summary: Inhibition of PYK2 at 1 uM
Recorded inhibition values for a group of compounds are listed next.

{"columns": ["molecular-string", "assayed-target", "inequality-symbol", "inhibition (%)"],
 "data": [
  ["O=C(O)c1ccc(-c2cnc3c(c2)N(Cc2cc(Cl)ccc2C(F)(F)F)CCN3)cc1", "UniProt Q14289", "<", 50],
  ["CN1CCN(c2ccc(-c3cnc4c(c3)N(Cc3cc(Cl)ccc3Cl)CCN4)cn2)CC1", "UniProt Q14289", "<", 50],
  ["CN1CCN(c2ccc(-c3cnc4c(c3)N(Cc3c(F)ccc(F)c3Cl)CCN4)cn2)CC1", "UniProt Q14289", "<", 50],
  ["O=C(c1ccc(-c2cnc3c(c2)N(Cc2cc(Cl)ccc2C(F)(F)F)CCN3)cc1)N1CCCCC1", "UniProt Q14289", "<", 50],
  ["CN1CCN(c2ccc(-c3cnc4c(c3)N(Cc3cc(F)ccc3F)CCN4)cn2)CC1", "UniProt Q14289", "<", 50],
  ["FC(F)(F)c1ccc(Cl)cc1CN1CCNc2ncc(-c3ccnc(N4CCNCC4)c3)cc21", "UniProt Q14289", "=", 87],
  ["COC1CCN(C(=O)c2ccc(-c3cnc4c(c3)N(Cc3cc(Cl)ccc3C(F)(F)F)CCN4)cc2)CC1", "UniProt Q14289", "=", 68],
  ["CN1CCN(c2ccc(-c3cnc4c(c3)N(Cc3cc(Cl)ccc3C(F)(F)F)CCN4)cn2)CC1", "UniProt Q14289", "=", 71],
  ["CC(=O)N1CCN(c2cc(-c3cnc4c(c3)N(Cc3cc(Cl)ccc3C(F)(F)F)CCN4)ccn2)CC1", "UniProt Q14289", "=", 84],
  ["O=C(c1ccc(-c2cnc3c(c2)N(Cc2cc(Cl)ccc2C(F)(F)F)CCN3)cc1)N1CCC(N2CCCC2)CC1", "UniProt Q14289", "=", 90.8]
]}

* * *

Test system: Tyrosine-protein kinase ABL1 (Homo sapiens), P00519 [H396P]
protocol-summary: Inhibition of ABL1 H396P mutant at 1 uM

{"columns": ["molecular-string", "inhibition"],
 "data": [
  ["CN1CCN(c2ccc(-c3cnc4c(c3)N(Cc3cc(Cl)ccc3Cl)CCN4)cn2)CC1", "< 50%"],
  ["FC(F)(F)c1ccc(Cl)cc1CN1CCNc2ncc(-c3ccnc(N4CCNCC4)c3)cc21", "< 50%"],
  ["O=C(O)c1ccc(-c2cnc3c(c2)N(Cc2cc(Cl)ccc2C(F)(F)F)CCN3)cc1", "< 50%"],
  ["O=C(c1ccc(-c2cnc3c(c2)N(Cc2cc(Cl)ccc2C(F)(F)F)CCN3)cc1)N1CCC(N2CCCC2)CC1", "< 50%"],
  ["CN1CCN(c2ccc(-c3cnc4c(c3)N(Cc3cc(F)ccc3F)CCN4)cn2)CC1", "58.5%"],
  ["CN1CCN(c2ccc(-c3cnc4c(c3)N(Cc3cc(Cl)ccc3C(F)(F)F)CCN4)cn2)CC1", "< 50%"],
  ["CC(=O)N1CCN(c2cc(-c3cnc4c(c3)N(Cc3cc(Cl)ccc3C(F)(F)F)CCN4)ccn2)CC1", "< 50%"],
  ["O=C(c1ccc(-c2cnc3c(c2)N(Cc2cc(Cl)ccc2C(F)(F)F)CCN3)cc1)N1CCCCC1", "< 50%"],
  ["CN1CCN(c2ccc(-c3cnc4c(c3)N(Cc3c(F)ccc(F)c3Cl)CCN4)cn2)CC1", "85%"],
  ["COC1CCN(C(=O)c2ccc(-c3cnc4c(c3)N(Cc3cc(Cl)ccc3C(F)(F)F)CCN4)cc2)CC1", "< 50%"]
]}

Values from ChEMBL document CHEMBL1165965
